meta.source: PubChem BioAssay

Catalogue of inhibition readings, one per entry.
target: Lethal factor (Bacillus anthracis) (UniProt P15917); assay: Lethal factor protease inhibitors, Bacillus anthracis, multiplex microsphere cleavage assay, validation set (AID 588461); conditions: flow cytometry, at 10 µM, stronger effect = higher value
Where a SMILES comes first, the peptide text is derived from it. The star is where a group is joined. Boc = CC(C)(C)OC(=O)*

{"Molecule": "OCCN(CCO)c1ccc2ccccc2c1", "Measured on": "Lethal factor (Bacillus anthracis) (UniProt P15917)", "inhibition [%]": -6.6}
{"Molecule": "CC1(C#CC[N+]2(C)CCCCC2)CCC2C(O1)c1ccccc1OC2(C)C (stereo not drawn)", "Measured on": "Lethal factor (Bacillus anthracis) (UniProt P15917)", "inhibition [%]": -2.1}
{"Molecule": "CC(C)CC(NC(=O)C1CCCN1C(=O)OC(C)(C)C)C(=O)NCC(N)=O (stereo not drawn) (Boc-Pro-Leu-Gly-NH2; configuration not given here)", "Measured on": "Lethal factor (Bacillus anthracis) (UniProt P15917)", "inhibition [%]": 4.3}

====

target: Botulinum neurotoxin type A (Clostridium botulinum) (UniProt P0DPI0); assay: BoNT/A light chain protease inhibitors, biochemical, multiplex microsphere flow cytometry, validation set (AID 588460); settings: at 10 µM, stronger effect = higher value
Sequence (P0DPI0 whole entry, looked up): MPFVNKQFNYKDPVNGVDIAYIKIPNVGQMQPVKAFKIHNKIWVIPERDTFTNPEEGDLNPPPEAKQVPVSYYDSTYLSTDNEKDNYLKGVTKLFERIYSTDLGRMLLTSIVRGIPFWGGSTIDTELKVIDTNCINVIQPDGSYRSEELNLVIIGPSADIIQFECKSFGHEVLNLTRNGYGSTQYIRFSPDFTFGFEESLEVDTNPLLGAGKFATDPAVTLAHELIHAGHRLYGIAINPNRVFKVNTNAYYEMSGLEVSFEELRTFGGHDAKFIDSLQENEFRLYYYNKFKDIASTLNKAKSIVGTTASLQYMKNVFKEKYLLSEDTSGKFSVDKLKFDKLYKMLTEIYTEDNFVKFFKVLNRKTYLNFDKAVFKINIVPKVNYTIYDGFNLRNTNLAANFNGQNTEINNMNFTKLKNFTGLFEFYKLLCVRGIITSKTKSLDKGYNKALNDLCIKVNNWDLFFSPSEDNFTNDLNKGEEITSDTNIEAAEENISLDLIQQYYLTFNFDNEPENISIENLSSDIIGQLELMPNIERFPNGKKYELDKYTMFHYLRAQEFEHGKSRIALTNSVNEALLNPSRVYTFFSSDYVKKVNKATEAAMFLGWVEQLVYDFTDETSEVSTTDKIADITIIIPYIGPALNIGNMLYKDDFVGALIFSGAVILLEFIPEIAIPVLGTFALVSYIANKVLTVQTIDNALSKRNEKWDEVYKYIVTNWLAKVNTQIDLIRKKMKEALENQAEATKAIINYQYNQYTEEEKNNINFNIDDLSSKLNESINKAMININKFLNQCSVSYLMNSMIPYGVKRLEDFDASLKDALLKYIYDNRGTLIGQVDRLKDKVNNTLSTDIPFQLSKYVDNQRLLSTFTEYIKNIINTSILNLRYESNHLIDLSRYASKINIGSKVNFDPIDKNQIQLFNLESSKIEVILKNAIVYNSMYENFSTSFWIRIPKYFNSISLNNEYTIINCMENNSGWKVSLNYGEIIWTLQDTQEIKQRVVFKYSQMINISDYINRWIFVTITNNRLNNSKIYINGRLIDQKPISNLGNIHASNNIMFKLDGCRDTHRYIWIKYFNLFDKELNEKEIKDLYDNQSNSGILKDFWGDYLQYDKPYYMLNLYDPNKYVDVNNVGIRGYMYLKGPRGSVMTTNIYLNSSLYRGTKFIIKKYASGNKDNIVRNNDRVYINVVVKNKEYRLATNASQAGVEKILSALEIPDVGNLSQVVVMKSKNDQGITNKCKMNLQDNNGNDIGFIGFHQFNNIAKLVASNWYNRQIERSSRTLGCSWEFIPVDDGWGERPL
Catalogue of inhibition readings, one per entry.
Measurement type: inhibition (%)

{"Molecule": "O=C(CSCc1ccccc1)NCCCN1CCOCC1", "Measurement units": "%", "Reported": -0.9}
{"Molecule": "Nc1c(C(=O)c2ccccc2)oc2ccccc12", "Measurement units": "%", "Reported": 1}
{"Molecule": "CC1(C)Cc2nc3sc4c(=O)n(CC(N)=O)cnc4c3cc2CO1", "Measurement units": "%", "Reported": 1.1}
{"Molecule": "CC(C)C(=O)Nc1ccc(S(=O)(=O)N2CC3CC(C2)c2cccc(=O)n2C3)cc1 (stereo not given)", "Measurement units": "%", "Reported": 0.5}
{"Molecule": "CC1(C)CC(C(CC(=O)N2CCCC2)Cc2ccccc2)CCO1 (stereo not given)", "Measurement units": "%", "Reported": 0.6}
{"Molecule": "CCc1cc2c(=O)c(-c3nc(C)cs3)coc2cc1OC(C)C(=O)NCCO (stereo not given)", "Measurement units": "%", "Reported": -0.8}
{"Molecule": "CC(NC(=O)c1ccc(N2CCNCC2)c([N+](=O)[O-])c1)C12CC3CC(CC(C3)C1)C2 (stereo not given)", "Measurement units": "%", "Reported": -0.6}
{"Molecule": "CC(C)Cc1ccc(C(C)C(=O)Nc2ccc(O)cc2)cc1 (stereo not given)", "Measurement units": "%", "Reported": -1.3}
{"Molecule": "COc1cc(C(=O)Nc2ccc(N(C)C)cc2)c([N+](=O)[O-])cc1OC", "Measurement units": "%", "Reported": -0.2}
{"Molecule": "O=C(OCC1CCCN2CCCCC12)c1ccc2c(c1)OCO2 (stereo not given)", "Measurement units": "%", "Reported": -1.6}
{"Molecule": "Cc1nc(N)nc2c1CCCC2", "Measurement units": "%", "Reported": 1.2}
{"Molecule": "COc1ccc2c(c1)C=CC1(O2)N(CCO)c2ccccc2C1(C)C (stereo not given)", "Measurement units": "%", "Reported": -0.7}
{"Molecule": "CC(OC(=O)c1cc(=O)[nH]c2ccccc12)C(=O)c1ccccc1 (stereo not given)", "Measurement units": "%", "Reported": -2.4}
{"Molecule": "OCCN1CCN(CCCN2c3ccccc3Sc3ccc(Cl)cc32)CC1", "Measurement units": "%", "Reported": 0.8}
{"Molecule": "Nc1nc2ccc(OC(F)(F)F)cc2s1", "Measurement units": "%", "Reported": -0.1}
{"Molecule": "CC(C)C[C@H](NC(=O)[C@@H]1Cc2ccccc2CN1C(=O)OC(C)(C)C)C(=O)NCC1CCC(C(=O)O)CC1 (stereo not given in full)", "Measurement units": "%", "Reported": 0.3}
{"Molecule": "COc1ccc(OC(C)C(=O)Nc2ccccc2F)cc1 (stereo not given)", "Measurement units": "%", "Reported": -0.2}
{"Molecule": "COc1cc(NS(=O)(=O)c2ccc(N)cc2)nc(OC)n1", "Measurement units": "%", "Reported": 1.1}
{"Molecule": "CC(=O)[C@H]1CC[C@H]2[C@@H]3CCC4=CC(=O)CC[C@]4(C)[C@H]3[C@H](O)C[C@]12C", "Measurement units": "%", "Reported": -1.3}
{"Molecule": "CCN(CC)C(=O)c1sc(NC(=O)c2c(OC)cccc2OC)c(C#N)c1C", "Measurement units": "%", "Reported": 2.1}
{"Molecule": "COc1ccc(/C=C(/C#N)c2cccnc2)cc1OC", "Measurement units": "%", "Reported": 1}
{"Molecule": "CCOc1ccc(CC2c3cc(OCC)c(OCC)cc3CCN2C(=O)CN2CCN(C)CC2)cc1OCC (stereo not given)", "Measurement units": "%", "Reported": -1.4}
{"Molecule": "CC1(C)CC(=O)C(C(=O)CCCCC(=O)C2C(=O)CC(C)(C)CC2=O)C(=O)C1", "Measurement units": "%", "Reported": 0.8}
{"Molecule": "Cn1c(=O)c2c(ncn2CC(O)CO)n(C)c1=O (stereo not given)", "Measurement units": "%", "Reported": 1}
{"Molecule": "CCN(CC)C(=O)N[C@H]1C[C@@H]2c3cccc4[nH]cc(c34)C[C@H]2N(C)C1", "Measurement units": "%", "Reported": -1.3}
